- system: STAT6 (Homo sapiens)
- Construct: stably transfected HaCaT keratinocyte cell line, which expresses NanoLuc luciferase reporter gene under the transcriptional control of the STAT6 responsive promoter; endogenous in cells; host or cells: HaCaT keratinocyte reporter cell line (stably transfected with a NanoLuc reporter)
- protocolNotes: STAT6 Reporter Luciferase Assay (IL-13 stimulated HaCaT keratinocyte NanoLuc reporter cells)
- Assay type: cell-based
- assaySetup: IL-13 stimulated HaCaT STAT6 NanoLuc reporter cells; read-out: Reporter EC50
measuredMetric: EC50 (nM)
Expressed in nM, but write only the number.

Observe how each entry below is paired with its result.
- compound: "CC(C)n1nc(C(=O)NCc2ccc(NC(=O)N3CCCNCC3)c(F)c2)c2c1[C@@H](C)CN(c1ccc(C(=O)N(C)C)cc1)C2"
  EC50 / nM: 4
- compound: "CC(C)n1nc(C(=O)NCc2ccc(NC(=O)N3CC4(CN(C)C4)C3)c(F)c2)c2c1[C@@H](C)CN(c1ccc(C(=O)N(C)C)cn1)C2"
  EC50 / nM: 4

Now examine the next entry.
// returns reported EC50 for input CCC1Cc2c(c(C(=O)NCc3ccc(NC(=O)N(C)C)cc3)nn2C(C)C)CN1c1ccc(C(=O)N(C)C)cn1 (single isomer, unassigned) [Example 267] 50

----------
- system: STAT6 (Homo sapiens, UniProt P42226)
- Construct: stably transfected HaCaT keratinocyte cell line, which expresses NanoLuc luciferase reporter gene under the transcriptional control of the STAT6 responsive promoter; endogenous in cells; host or cells: HaCaT keratinocyte reporter cell line (stably transfected with a NanoLuc reporter)
- Sequence (P42226 whole entry): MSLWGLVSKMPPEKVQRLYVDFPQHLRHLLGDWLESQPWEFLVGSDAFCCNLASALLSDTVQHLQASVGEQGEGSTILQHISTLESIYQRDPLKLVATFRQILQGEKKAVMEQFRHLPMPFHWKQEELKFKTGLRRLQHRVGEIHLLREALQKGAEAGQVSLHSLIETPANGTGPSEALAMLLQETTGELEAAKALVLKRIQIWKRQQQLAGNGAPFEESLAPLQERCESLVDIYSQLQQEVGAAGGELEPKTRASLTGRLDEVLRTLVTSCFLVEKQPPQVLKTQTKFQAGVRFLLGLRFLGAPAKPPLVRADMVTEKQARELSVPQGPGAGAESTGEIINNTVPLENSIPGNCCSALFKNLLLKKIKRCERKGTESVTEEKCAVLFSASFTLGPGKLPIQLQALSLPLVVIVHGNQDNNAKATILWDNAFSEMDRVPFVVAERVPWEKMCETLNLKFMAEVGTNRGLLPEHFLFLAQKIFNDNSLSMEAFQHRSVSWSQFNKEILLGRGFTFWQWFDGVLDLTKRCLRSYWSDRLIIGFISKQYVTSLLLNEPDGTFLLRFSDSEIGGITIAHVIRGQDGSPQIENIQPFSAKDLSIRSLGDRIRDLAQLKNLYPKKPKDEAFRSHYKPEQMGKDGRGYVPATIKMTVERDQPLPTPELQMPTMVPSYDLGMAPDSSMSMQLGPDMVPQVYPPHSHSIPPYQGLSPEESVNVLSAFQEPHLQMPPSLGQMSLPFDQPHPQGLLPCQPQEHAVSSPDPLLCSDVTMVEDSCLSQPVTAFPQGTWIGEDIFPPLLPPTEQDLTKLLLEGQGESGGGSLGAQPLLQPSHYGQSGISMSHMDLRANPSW
- protocolNotes: STAT6 Reporter Luciferase Assay (IL-13 stimulated HaCaT keratinocyte NanoLuc reporter cells)
- Assay type: cell-based
- assaySetup: STAT6 NanoLuc luciferase reporter, IL-13 stimulated HaCaT keratinocyte cells; read-out: Reporter EC50
- From the text: Pharmacological measurements of STAT6 transcriptional activity through the IL-13-IL-13 receptor/IL-4 receptor pathway were made with a stably transfected HaCaT keratinocyte cell line, which expresses NanoLuc luciferase reporter gene under the transcriptional control of the STAT6 responsive promoter for IL-13Ra2. The readout of the STAT6 activity utilized Promega Nano-Glo Luciferase assay kit. […]
Labelling: EC50 reported below 20 nM becomes met; at or above becomes not met.

- compound: "CC(C)n1nc(C(=O)NCc2ccc(-c3nnc[nH]3)cc2)c2c1CCN(c1ccc(C(=O)N(C)C)cn1)C2"
  system: "STAT6 (Homo sapiens, UniProt P42226)"
  className: "not met"
- compound: "CC(C)n1nc(C(=O)NCc2ccc(NC(=O)N(C)C)cc2)c2c1CCN(c1ccc(N3CCOCC3=O)cn1)C2"
  system: "STAT6 (Homo sapiens, UniProt P42226)"
  className: "not met"
- compound: "CCn1nc(C(=O)NCc2ccc(NC(=O)N(C)C)cc2)c2c1CCN(c1ccc(N3CCCC3=O)cn1)C2"
  system: "STAT6 (Homo sapiens, UniProt P42226)"
  className: "not met"

Is EC50 of CCn1nc(C(=O)NCc2ccc(NC(=O)N(C)C)cc2)c2c1C[C@H](C)N(c1ccc(C(=O)N(C)C)cn1)C2 (single isomer, unassigned) strictly below 20 nM? met

Is EC50 of CCC1CN(c2ccc(C(=O)N(C)C)cn2)Cc2c(C(=O)NCc3ccc(NC(=O)N(C)C)cc3)n[nH]c21 (single isomer, unassigned) [Example 83] strictly below 20 nM? not met

Is EC50 of `CC(C)n1nc(C(=O)NCc2ccc(NC(=O)N(C)CC3COC3)cc2)c2c1CCN(c1ccc(C(=O)N(C)C)cn1)C2` strictly below 20 nM? not met

Is EC50 of `CN(C)C(=O)Nc1ccc(CNC(=O)c2nn(C)c3c2CN(c2ccc(C(=O)N(C)C)cn2)CC3)cc1` strictly below 20 nM? not met

Is EC50 of `CC(C)n1nc(C(=O)NCc2ccc(NC(=O)N(C)CCO)cc2)c2c1CCN(c1ccc(C(=O)N(C)C)cn1)C2` strictly below 20 nM? met

Is EC50 of CCC1CN(c2ccc(C(=O)N(C)C)cn2)Cc2c(C(=O)NCc3ccc(NC(=O)N(C)C)cc3)n[nH]c21 (racemic) [Example 57] strictly below 20 nM? not met
